Below, each entry is listed with its recorded Fold depletion in AML.
# Test system: tet-on competent MLL/AF9+Nras AML
# Test protocol: Pooled negative selection RNAi screening (deep sequencing)
# Format: cell-based, mouse
# Experimental setup: deep sequencing reads, On Dox compared to T0

Molecule	Fold depletion in AML / Fold
Aspa.996: shRNA, SEQ ID NO: 92 (nucleic acid) TGCTGTTGACAGTGAGCGCATGAAGCTGCATATTATGAAATAGTGAAGCCACAGATGTATTTCATAATATGCAGCTTCATTTGCCTACTGCCTCGGA	13.25
Myb.2572: shRNA, SEQ ID NO: 143 (also SEQ ID NO: 52) (nucleic acid) TGCTGTTGACAGTGAGCGCTCCATGTATCTCAGTCACTAATAGTGAAGCCACAGATGTATTAGTGACTGAGATACATGGAATGCCTACTGCCTCGGA	67.47
Ncf1.2370: shRNA, SEQ ID NO: 150 (nucleic acid) TGCTGTTGACAGTGAGCGCCAGAAGATCAATGCACATAAATAGTGAAGCCACAGATGTATTTATGTGCATTGATCTTCTGTTGCCTACTGCCTCGGA	10.06
Lin28.2270: neutral control shRNA, SEQ ID NO: 200 (nucleic acid) TGCTGTTGACAGTGAGCGCAACGGGACAAATGCAATAGAATAGTGAAGCCACAGATGTATTCTATTGCATTTGTCCCGTTTTGCCTACTGCCTCGGA	0.22
Thyn1.315: shRNA, SEQ ID NO: 186 (nucleic acid) TGCTGTTGACAGTGAGCGCAAGCAACTACTGGCTGATGAATAGTGAAGCCACAGATGTATTCATCAGCCAGTAGTTGCTTATGCCTACTGCCTCGGA	145.53
Fosb.1165: shRNA, SEQ ID NO: 123 (nucleic acid) TGCTGTTGACAGTGAGCGCCAGGCGGAAACTGATCAGCTTTAGTGAAGCCACAGATGTAAAGCTGATCAGTTTCCGCCTGATGCCTACTGCCTCGGA	13.12
Ctbs.796: shRNA, SEQ ID NO: 110 (nucleic acid) TGCTGTTGACAGTGAGCGCCCCACAGAGCATCTCACTAAATAGTGAAGCCACAGATGTATTTAGTGAGATGCTCTGTGGGTTGCCTACTGCCTCGGA	19.44
Pctk1.948: shRNA, SEQ ID NO: 161 (nucleic acid) TGCTGTTGACAGTGAGCGCCCGGGAAGTATCCCTGCTTAATAGTGAAGCCACAGATGTATTAAGCAGGGATACTTCCCGGATGCCTACTGCCTCGGA	123.76
